- TARGET UNDER TEST: Chymotrypsinogen A (Bos taurus)
- PROTOCOL: Evaluation of kinetic parameter Ki/KI(1/M.1/S) by its ability to inhibit the Alpha-CT (Bovine alpha-chymotrypsin) enzyme
Would you kindly list Ki/KI for each of these compounds?
Your answer should be a plain number; it is taken to be in M⁻¹ s⁻¹.

-- ask What does the data say about its Ki/KI? Entry: "O=C(Oc1cccnc1Cl)c1cc2cc(CCl)ccc2oc1=O"
-- reply 4300

-- ask What does the data say about its Ki/KI? Entry: "Cc1cccc(OC(=O)c2cc3cc(CCl)ccc3oc2=O)n1"
-- reply 3300

-- ask What does the data say about its Ki/KI? Entry: "Cc1ccnc(OC(=O)c2cc3cc(CCl)ccc3oc2=O)c1"
-- reply 5950

-- ask What does the data say about its Ki/KI? Entry: "O=C(Oc1ccc(Cl)cn1)c1cc2cc(CCl)ccc2oc1=O"
-- reply 2500
